meta.source: patent US20240083921A1

Below, each entry is listed with its recorded log10(IC50).
# Test system: TNF-α release from peripheral blood mononuclear cells (PBMCs)
# Measurement Description: Inhibition of pro-inflammatory cytokine (TNF-α) release from LPS-stimulated PBMCs, ELISA
# Type: cell-based
# Conditions Used: PBMC, LPS 0.1 ng/ml, 24 hours
# Experimental: Test Example 2 Inhibitory Effect of Compounds on the Release of Pro-Inflammatory Cytokines from Peripheral Blood Mononuclear Cells (PBMCs) Frozen PBMCs were thawed and detected by Trypan blue staining for cell viability and number. […] After completion of the incubation, 100 μL of cell culture supernatant was collected and detected by ELISA for the TNF-α level. […] The IC50 value of inhibition of TNF-α release by the compounds was calculated. […]
Quantity Measured: log10(IC50) (log10 of the value in nM)

{"Compound": "COc1ccc(-c2cncc(C3COB(O)C3)n2)c2c1OC1(CCCC1)C2 (stereo not drawn)", "log10(IC50)": 0.33}
{"Compound": "CCCOc1cc(-c2cncc([C@@H]3COB(O)C3)c2)ccc1OC [Compound A, reference compound]", "log10(IC50)": 0.06}
{"Compound": "COc1ccc(-c2cncc([C@@H]3COB(O)C3)n2)c2c1OC(C)(C)CC2", "log10(IC50)": -1.26}
{"Compound": "COc1ccc(-c2cncc(C3COB(O)C3)c2)c2ccc(C(F)(F)F)nc12 (stereo not drawn)", "log10(IC50)": -0.05}
{"Compound": "COc1ccc(-c2cncc(C3COB(O)C3)c2)c2cc(C(F)(F)F)nn12 (stereo not drawn)", "log10(IC50)": -0.44}
{"Compound": "COc1ccc(-c2cncc(C3COB(O)C3)c2)c2c1OC(C)(C)CC2 (stereo not drawn)", "log10(IC50)": -0.52}
{"Compound": "COc1ccc(-c2cc(C3COB(O)C3)cnn2)c2c1OC1(CCCC1)C2 (stereo not drawn)", "log10(IC50)": 0.19}
{"Compound": "COc1ccc(-c2cncc(C3COB(O)C3)c2)c2c1OC(C)(C)CO2 (stereo not drawn)", "log10(IC50)": -0.13}
{"Compound": "COc1ccc(-c2cncc(C3COB(O)C3)c2)c2c1OC(C)(C)C2 (stereo not drawn)", "log10(IC50)": 0.19}

* * *

# Assay Target: UniProt:Q07343
# Sequence (Q07343 whole entry): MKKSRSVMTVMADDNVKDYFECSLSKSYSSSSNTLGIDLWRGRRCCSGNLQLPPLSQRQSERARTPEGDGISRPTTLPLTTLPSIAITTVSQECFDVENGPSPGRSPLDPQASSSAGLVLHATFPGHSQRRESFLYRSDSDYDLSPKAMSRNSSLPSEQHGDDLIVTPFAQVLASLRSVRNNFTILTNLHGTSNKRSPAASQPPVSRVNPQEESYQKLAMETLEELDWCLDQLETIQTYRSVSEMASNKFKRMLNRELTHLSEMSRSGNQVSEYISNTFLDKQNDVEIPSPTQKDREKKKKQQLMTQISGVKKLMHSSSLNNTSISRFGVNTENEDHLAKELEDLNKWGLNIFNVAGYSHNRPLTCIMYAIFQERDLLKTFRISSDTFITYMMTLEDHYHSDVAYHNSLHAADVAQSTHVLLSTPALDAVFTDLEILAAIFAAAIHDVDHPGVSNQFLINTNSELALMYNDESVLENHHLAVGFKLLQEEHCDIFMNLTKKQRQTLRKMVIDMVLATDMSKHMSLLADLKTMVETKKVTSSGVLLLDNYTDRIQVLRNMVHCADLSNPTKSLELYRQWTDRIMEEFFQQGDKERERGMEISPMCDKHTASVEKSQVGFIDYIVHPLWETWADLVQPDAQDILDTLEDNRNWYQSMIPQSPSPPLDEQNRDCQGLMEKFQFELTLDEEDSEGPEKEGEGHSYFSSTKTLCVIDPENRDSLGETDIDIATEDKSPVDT
Checkbox rule: IC50 lower than 0.2 nM = 1 (yes); IC50 not lower than 0.2 nM = 0 (no).

{"Compound": "CCCOc1cc(-c2cncc([C@@H]3COB(O)C3)c2)ccc1OC [Compound A, reference compound]", "Label Value": "0 (no)"}
{"Compound": "COc1ccc(-c2cccc(C3COB(O)C3)c2)c2c1OC1(CCCC1)C2 (centres unmarked)", "Label Value": "0 (no)"}
{"Compound": "COc1ccc(-c2cncc(C3COB(O)C3)c2)c2ccc(C(F)(F)F)nc12 (centres unmarked)", "Label Value": "1 (yes)"}
{"Compound": "COc1ccc(-c2cncc([C@@H]3COB(O)C3)c2)c2c1OC1(CCCC1)C2", "Label Value": "1 (yes)"}
{"Compound": "COc1ccc(-c2cncc(C3COB(O)C3)c2)c2c1OC(C)(C)C2 (centres unmarked)", "Label Value": "0 (no)"}

* * *

Items are presented alongside their recorded IC50.
# System: IL-23 secretion of DC cells differentiated from human mononuclear cells
# Measurement Description: In vitro inhibition of IL-23 secretion of DC cells differentiated from human mononuclear cells, Zymosan stimulation, ELISA
# Assay type: cell-based
# Conditions Used: Homo sapiens, PBMC; Table 3: inhibition of IL-23 secretion of DC cells, Zymosan 200 μg/ml, 24 hours

{"Compound": "O=C(Nc1c(Cl)cncc1Cl)c1ccc(OC(F)F)c(OCC2CC2)c1 [Roflumilast, reference compound]", "Assay Target": "IL-23 secretion of DC cells differentiated from human mononuclear cells", "IC50 [pM]": 12900}
{"Compound": "CCCOc1cc(-c2cncc([C@@H]3COB(O)C3)c2)ccc1OC [Compound A, reference compound]", "Assay Target": "IL-23 secretion of DC cells differentiated from human mononuclear cells", "IC50 [pM]": 610}
{"Compound": "COc1ccc(-c2cncc([C@@H]3COB(O)C3)n2)c2c1OC(C)(C)CC2", "Assay Target": "IL-23 secretion of DC cells differentiated from human mononuclear cells", "IC50 [pM]": 18}
